These data points were gathered from paper PMC9399681.

- testedSystem: mASH1L PHD domain (residue 2573–2624) W2597A (mouse, UniProt Q99MY8 2573-2624, W2597A)
- testDescription: ITC
Primed or numbered codes have the meaning given here. Where no end group is shown, it is not given here. [ ]: non-standard residue; d: D form. Me3″ = trimethylation (trimethyl-lysine); Lys(Me2) = CN(C)CCCC[C@H](N)C(=O)O
Kd listing for selected binders.

Sample answers from the record:
binder: ARTK(Me3″)QTARKSTGGKA (peptide, UniProt P68431 2-16, looked up, histone H3, residues 1-15; also called H3K4me3; source: synthetic peptide (MIMOYOPES, Wuxi, China)) [histone H3 (1–15) peptide, trimethylated on lysine 4]
Kd: > 200 µM
//
binder: ARTK(Me)QTARKSTGGKA (peptide, UniProt P68431 2-16, looked up, histone H3, residues 1-15; also called H3K4me1; H3K4me; source: synthetic peptide (MIMOYOPES, Wuxi, China)) [histone H3 (1–15) peptide, monomethylated on lysine 4]
Kd: > 200 µM

# ---- query binder ----
input: Fill blank: measured Kd of the binder ART[Lys(Me2)]QTARKSTGGKA (also called H3K4me2; H3K4me2 peptide (1–15); source: synthetic peptide (MIMOYOPES, Wuxi, China)) [histone H3 (1–15) peptide, dimethylated on lysine 4] is ____.
output: > 200 µM
